test: Biodistribution of 18F-labeled SST2 ligands in AR42J tumor-bearing mice; type: in vivo; details: female, CD1 nu/nu, mouse, stomach, iv, total radioactivity, 1 h post injection, tail vein; read-out: Stomach % ID/g ± SD
VALUE TYPE: tissue uptake at 1 h (%ID/g)
Write the value in %ID/g as a bare number.

Use the examples below as a reference point.
| COMPOUND | UNITS OF MEASURE | VALUE OBSERVED |
| --- | --- | --- |
| C[C@@H](O)[C@H](NC(=O)C1CSSCC(NC(=O)C(Cc2ccccc2)NC(=O)CNC(=O)CNC(=O)[C@@H](CC(=O)O)NC(=O)C(CC(=O)O)NC(=O)[C@@H](CNC(=O)CN2CCN(CC(=O)O)CCN(CC(=O)O)CCN(CC(=O)O)CC2)NC(=O)C[N+](C)(C)Cc2ccc([Si](F)(C(C)(C)C)C(C)(C)C)cc2)C(=O)N[C@@H](Cc2ccc(O)cc2)C(=O)NC(Cc2c[nH]c3ccccc23)C(=O)N[C@@H](CCCCN)C(=O)N[C@@H]([C@@H](C)O)C(=O)N1)C(=O)O (stereo partly drawn) (natGa complex, metal not drawn) [[Ga]24] | %ID/g | 4.95 |
| C[C@@H](O)[C@H](NC(=O)C1CSSCC(NC(=O)C(Cc2ccccc2)NC(=O)CNC(=O)CNC(=O)CNC(=O)C(CC(=O)O)NC(=O)[C@@H](CC(=O)O)NC(=O)C(CCCCN)NC(=O)[C@@H](CNC(=O)C[N+](C)(C)Cc2ccc([Si](F)(C(C)(C)C)C(C)(C)C)cc2)NC(=O)CN2CCN(CC(=O)O)CCN(CC(=O)O)CCN(CC(=O)O)CC2)C(=O)N[C@@H](Cc2ccc(O)cc2)C(=O)NC(Cc2c[nH]c3ccccc23)C(=O)N[C@@H](CCCCN)C(=O)N[C@@H]([C@@H](C)O)C(=O)N1)C(=O)O (stereo partly drawn) (natGa complex, metal not drawn) [[Ga]45] | %ID/g | 7.5 |

Please find the next compound below.
In: Item under review: C[C@@H](O)[C@H](NC(=O)C1CSSCC(NC(=O)C(Cc2ccccc2)NC(=O)CNC(=O)CNC(=O)[C@@H](CC(=O)O)NC(=O)C(CC(=O)O)NC(=O)[C@@H](CNC(=O)CN2CCN(CC(=O)O)CCN(CC(=O)O)CCN(CC(=O)O)CC2)NC(=O)C(CN)NC(=O)c2ccc([Si](F)(C(C)(C)C)C(C)(C)C)cc2)C(=O)N[C@@H](Cc2ccc(O)cc2)C(=O)NC(Cc2c[nH]c3ccccc23)C(=O)N[C@@H](CCCCN)C(=O)N[C@@H]([C@@H](C)O)C(=O)N1)C(=O)O (stereo partly drawn) (natGa complex, metal not drawn) [[Ga]19] . Reported tissue uptake at 1 h?
Out: 7.99

###

Hi! I'm sharing some pIC50 results obtained with SST2 (Homo sapiens).
Sequence (P30874 whole entry, species assumed): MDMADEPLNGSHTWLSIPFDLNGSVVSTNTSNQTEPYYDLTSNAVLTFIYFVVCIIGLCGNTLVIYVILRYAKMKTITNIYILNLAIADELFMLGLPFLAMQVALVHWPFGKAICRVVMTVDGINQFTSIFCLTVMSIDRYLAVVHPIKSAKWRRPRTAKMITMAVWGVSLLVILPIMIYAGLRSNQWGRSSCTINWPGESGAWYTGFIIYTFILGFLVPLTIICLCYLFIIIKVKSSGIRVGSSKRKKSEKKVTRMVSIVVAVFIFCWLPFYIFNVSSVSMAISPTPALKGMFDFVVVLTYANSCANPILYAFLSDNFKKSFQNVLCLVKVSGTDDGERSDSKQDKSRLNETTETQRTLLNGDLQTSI
# pIC50 = -log10(concentration in molar units)

| COMPOUND | SYSTEM | pIC50 |
| --- | --- | --- |
| C[C@@H](O)[C@H](NC(=O)C1CSSCC(NC(=O)C(Cc2ccccc2)NC(=O)CNC(=O)CNC(=O)[C@@H](CC(=O)O)NC(=O)C(CC(=O)O)NC(=O)[C@@H](CNC(=O)CN2CCN(CC(=O)O)CCN(CC(=O)O)CCN(CC(=O)O)CC2)NC(=O)C[N+](C)(C)Cc2ccc([Si](F)(C(C)(C)C)C(C)(C)C)cc2)C(=O)N[C@@H](Cc2ccc(O)cc2)C(=O)NC(Cc2c[nH]c3ccccc23)C(=O)N[C@@H](CCCCN)C(=O)N[C@@H]([C@@H](C)O)C(=O)N1)C(=O)O (some centres unmarked) (natGa complex, metal not drawn) [[Ga]24] | SST2 (Homo sapiens) | 8.02 |
| C[C@@H](O)[C@H](NC(=O)C1CSSCC(NC(=O)C(Cc2ccccc2)NC(=O)CNC(=O)CNC(=O)CNC(=O)C(CC(=O)O)NC(=O)[C@@H](CC(=O)O)NC(=O)C(CCCNC(N)=O)NC(=O)[C@@H](CNC(=O)C[N+](C)(C)Cc2ccc([Si](F)(C(C)(C)C)C(C)(C)C)cc2)NC(=O)CN2CCN(CC(=O)O)CCN(CC(=O)O)CCN(CC(=O)O)CC2)C(=O)N[C@@H](Cc2ccc(O)cc2)C(=O)NC(Cc2c[nH]c3ccccc23)C(=O)N[C@@H](CCCCN)C(=O)N[C@@H]([C@@H](C)O)C(=O)N1)C(=O)O (some centres unmarked) (natLu complex, metal not drawn) [[Lu]46] | SST2 (Homo sapiens) | 8.39 |
| C[C@@H](O)[C@H](NC(=O)C1CSSCC(NC(=O)C(Cc2ccccc2)NC(=O)[C@@H](CC(N)=O)NC(=O)C(CC(N)=O)NC(=O)[C@@H](CC(=O)O)NC(=O)C(CC(=O)O)NC(=O)[C@@H](CNC(=O)CN2CCN(CC(=O)O)CCN(CC(=O)O)CCN(CC(=O)O)CC2)NC(=O)C[N+](C)(C)Cc2ccc([Si](F)(C(C)(C)C)C(C)(C)C)cc2)C(=O)N[C@@H](Cc2ccc(O)cc2)C(=O)NC(Cc2c[nH]c3ccccc23)C(=O)N[C@@H](CCCCN)C(=O)N[C@@H]([C@@H](C)O)C(=O)N1)C(=O)O (some centres unmarked) (natGa complex, metal not drawn) [[Ga]48] | SST2 (Homo sapiens) | 8.21 |
| C[C@@H](O)[C@H](NC(=O)C1CSSCC(NC(=O)C(Cc2ccccc2)NC(=O)[C@@H](CC(N)=O)NC(=O)C(CC(N)=O)NC(=O)[C@@H](CC(=O)O)NC(=O)C(CC(=O)O)NC(=O)[C@@H](CNC(=O)CN2CCN(CC(=O)O)CCN(CC(=O)O)CCN(CC(=O)O)CC2)NC(=O)C[N+](C)(C)Cc2ccc([Si](F)(C(C)(C)C)C(C)(C)C)cc2)C(=O)N[C@@H](Cc2ccc(O)cc2)C(=O)NC(Cc2c[nH]c3ccccc23)C(=O)N[C@@H](CCCCN)C(=O)N[C@@H]([C@@H](C)O)C(=O)N1)C(=O)O (some centres unmarked) (natLu complex, metal not drawn) [[Lu]48] | SST2 (Homo sapiens) | 8.26 |
| C[C@@H](O)[C@H](NC(=O)C1CSSCC(NC(=O)C(Cc2ccccc2)NC(=O)CNC(=O)CNC(=O)CNC(=O)C(CC(=O)O)NC(=O)[C@@H](CC(=O)O)NC(=O)C(CCC(=O)O)NC(=O)[C@@H](CNC(=O)C[N+](C)(C)Cc2ccc([Si](F)(C(C)(C)C)C(C)(C)C)cc2)NC(=O)CN2CCN(CC(=O)O)CCN(CC(=O)O)CCN(CC(=O)O)CC2)C(=O)N[C@@H](Cc2ccc(O)cc2)C(=O)NC(Cc2c[nH]c3ccccc23)C(=O)N[C@@H](CCCCN)C(=O)N[C@@H]([C@@H](C)O)C(=O)N1)C(=O)O (some centres unmarked) (natGa complex, metal not drawn) [[Ga]47] | SST2 (Homo sapiens) | 8.12 |

In: Item under review: C[C@@H](O)[C@H](NC(=O)C1CSSCC(NC(=O)C(Cc2ccccc2)NC(=O)CNC(=O)C(CC(=O)O)NC(=O)[C@@H](CC(=O)O)NC(=O)C(CNC(=O)CN2CCN(CC(=O)O)CCN(CC(=O)O)CCN(CC(=O)O)CC2)NC(=O)[C@@H](CN)NC(=O)c2ccc([Si](F)(C(C)(C)C)C(C)(C)C)cc2)C(=O)N[C@@H](Cc2ccc(O)cc2)C(=O)NC(Cc2c[nH]c3ccccc23)C(=O)N[C@@H](CCCCN)C(=O)N[C@@H]([C@@H](C)O)C(=O)N1)C(=O)O (some centres unmarked) (natGa complex, metal not drawn) [[Ga]39] . Reported pIC50?
Out: 7.83

In: Repeat with C[C@@H](O)[C@H](NC(=O)C1CSSCC(NC(=O)C(Cc2ccccc2)NC(=O)CNC(=O)CNC(=O)CNC(=O)C(CC(=O)O)NC(=O)[C@@H](CC(=O)O)NC(=O)C(CNC(=O)CN2CCN(CC(=O)O)CCN(CC(=O)O)CCN(CC(=O)O)CC2)NC(=O)[C@@H](CN)NC(=O)CNC(=O)C[N+](C)(C)Cc2ccc([Si](F)(C(C)(C)C)C(C)(C)C)cc2)C(=O)N[C@@H](Cc2ccc(O)cc2)C(=O)NC(Cc2c[nH]c3ccccc23)C(=O)N[C@@H](CCCCN)C(=O)N[C@@H]([C@@H](C)O)C(=O)N1)C(=O)O (some centres unmarked) (natGa complex, metal not drawn) [[Ga]52]
Out: 8.43

In: Repeat with C[C@@H](O)[C@H](NC(=O)C1CSSCC(NC(=O)C(Cc2ccccc2)NC(=O)CNC(=O)CNC(=O)CNC(=O)C(CC(=O)O)NC(=O)[C@@H](CC(=O)O)NC(=O)C(CCCCN)NC(=O)[C@@H](CNC(=O)C[N+](C)(C)Cc2ccc([Si](F)(C(C)(C)C)C(C)(C)C)cc2)NC(=O)CN2CCN(CC(=O)O)CCN(CC(=O)O)CCN(CC(=O)O)CC2)C(=O)N[C@@H](Cc2ccc(O)cc2)C(=O)NC(Cc2c[nH]c3ccccc23)C(=O)N[C@@H](CCCCN)C(=O)N[C@@H]([C@@H](C)O)C(=O)N1)C(=O)O (some centres unmarked) (natGa complex, metal not drawn) [[Ga]45]
Out: 8.37
